Attribution: patent US20260069689A1

Reported pKd by item:
test target: T1, SARS-CoV2 Spike ecto foldon Trimer expressed with a C-terminal myc-myc-hexahistidine (SARS-CoV-2, UniProt P0DTC2 14-1213)
T1 construct: extracellular domain
protocol description: SPR Biacore, mAb captured by anti-hFc, 25C
pKd: −log10 of the molar value.

| binder | pKd |
| --- | --- |
| mAb14232 (antibody, V domains shown) VH: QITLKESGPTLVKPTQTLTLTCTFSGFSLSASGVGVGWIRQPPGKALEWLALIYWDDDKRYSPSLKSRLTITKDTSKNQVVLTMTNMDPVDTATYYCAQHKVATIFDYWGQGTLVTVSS VL: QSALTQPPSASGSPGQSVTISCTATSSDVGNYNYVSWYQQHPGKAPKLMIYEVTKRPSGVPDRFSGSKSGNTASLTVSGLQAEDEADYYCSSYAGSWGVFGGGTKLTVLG | 9.71 |
| mAb14281 (antibody, V domains shown) VH: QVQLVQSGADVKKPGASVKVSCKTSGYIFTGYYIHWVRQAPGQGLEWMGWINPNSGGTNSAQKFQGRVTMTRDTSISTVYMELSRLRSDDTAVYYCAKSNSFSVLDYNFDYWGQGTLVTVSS VL: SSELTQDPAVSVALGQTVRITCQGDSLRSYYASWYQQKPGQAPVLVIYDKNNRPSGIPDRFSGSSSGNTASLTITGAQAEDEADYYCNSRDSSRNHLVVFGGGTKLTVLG | 10.01 |
